Quick reference: NA-uptake, 10 μM, % inhibition of the listed items.
Target: NA transporter (Rattus norvegicus, UniProt Q9WTR4)
Construct: synaptosomes from rat brain regions were freshly isolated; from tissue; host or cells: P2 synaptosome fraction from hypothalamus of male rat brain
Sequence (Q9WTR4 1-597): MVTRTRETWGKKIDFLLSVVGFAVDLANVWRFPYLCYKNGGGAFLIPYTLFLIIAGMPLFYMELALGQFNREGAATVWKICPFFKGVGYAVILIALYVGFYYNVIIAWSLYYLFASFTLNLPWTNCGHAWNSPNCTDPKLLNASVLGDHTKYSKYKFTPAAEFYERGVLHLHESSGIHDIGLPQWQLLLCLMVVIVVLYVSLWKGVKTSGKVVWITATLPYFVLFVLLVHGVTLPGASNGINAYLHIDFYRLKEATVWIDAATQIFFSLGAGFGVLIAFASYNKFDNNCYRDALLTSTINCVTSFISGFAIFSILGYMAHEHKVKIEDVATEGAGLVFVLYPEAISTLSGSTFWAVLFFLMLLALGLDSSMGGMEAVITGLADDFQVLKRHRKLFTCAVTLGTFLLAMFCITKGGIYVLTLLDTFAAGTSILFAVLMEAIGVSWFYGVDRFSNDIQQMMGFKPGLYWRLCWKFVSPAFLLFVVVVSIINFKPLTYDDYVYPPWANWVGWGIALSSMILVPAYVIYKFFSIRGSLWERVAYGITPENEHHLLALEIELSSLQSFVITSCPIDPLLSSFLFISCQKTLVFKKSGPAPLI
Experiment: Noradrenalin uptake inhibition (NA-uptake) in synaptosomes
Type: biochemical
Details: rat hypothalamus synaptosomes
Reply numerically in %, unit not repeated.

[[record]]
compound = "O=C(NCc1cccs1)C1=NOC2(CCN(C(=O)c3cccc(Cl)c3)CC2)C1"
assay_system = "NA transporter (Rattus norvegicus, UniProt Q9WTR4)"
value_type = "NA-uptake, 10 μM, % inhibition"
experimental_result = 52

[[record]]
compound = "O=C(C1=NOC2(CCN(S(=O)(=O)c3ccc(F)cc3)CC2)C1)N1CCN(C2CCCCCC2)CC1"
assay_system = "NA transporter (Rattus norvegicus, UniProt Q9WTR4)"
value_type = "NA-uptake, 10 μM, % inhibition"
experimental_result = 44

[[record]]
compound = "O=C(NCc1cccs1)C1=NOC2(CCN(C(=O)C=Cc3ccccc3)CC2)C1"
assay_system = "NA transporter (Rattus norvegicus, UniProt Q9WTR4)"
value_type = "NA-uptake, 10 μM, % inhibition"
experimental_result = 47

[[record]]
compound = "O=C(NCc1cccs1)C1=NOC2(CCN(C(=O)CCCOc3ccccc3)CC2)C1"
assay_system = "NA transporter (Rattus norvegicus, UniProt Q9WTR4)"
value_type = "NA-uptake, 10 μM, % inhibition"
experimental_result = 67

[[record]]
compound = "O=C(NCCc1ccc(Cl)c(Cl)c1)C1=NOC2(CCN(S(=O)(=O)c3ccc(OC(F)(F)F)cc3)CC2)C1"
assay_system = "NA transporter (Rattus norvegicus, UniProt Q9WTR4)"
value_type = "NA-uptake, 10 μM, % inhibition"
experimental_result = 55


Tell me measured NA-uptake, 10 μM, % inhibition for O=C(NCC1CCCO1)C1=NOC2(CCN(C(=O)c3ccc(F)cc3F)CC2)C1 (centres unmarked) please.
45

For the compound O=C(NCc1cccc2ccccc12)C1=NOC2(CCN(S(=O)(=O)c3ccc(Cl)s3)CC2)C1 , give its reported NA-uptake, 10 μM, % inhibition.
45

Find the measured NA-uptake, 10 μM, % inhibition of CN(CCCNC(=O)C1=NOC2(CCN(S(=O)(=O)c3ccc(Cl)s3)CC2)C1)c1ccccc1 and report it.
68

====

Target: 5HT-uptake (Rattus norvegicus)
Construct: synaptosomes from rat brain regions were freshly isolated; from tissue; host or cells: P2 synaptosome fraction from rat brain regions
Sequence (P31652 whole entry): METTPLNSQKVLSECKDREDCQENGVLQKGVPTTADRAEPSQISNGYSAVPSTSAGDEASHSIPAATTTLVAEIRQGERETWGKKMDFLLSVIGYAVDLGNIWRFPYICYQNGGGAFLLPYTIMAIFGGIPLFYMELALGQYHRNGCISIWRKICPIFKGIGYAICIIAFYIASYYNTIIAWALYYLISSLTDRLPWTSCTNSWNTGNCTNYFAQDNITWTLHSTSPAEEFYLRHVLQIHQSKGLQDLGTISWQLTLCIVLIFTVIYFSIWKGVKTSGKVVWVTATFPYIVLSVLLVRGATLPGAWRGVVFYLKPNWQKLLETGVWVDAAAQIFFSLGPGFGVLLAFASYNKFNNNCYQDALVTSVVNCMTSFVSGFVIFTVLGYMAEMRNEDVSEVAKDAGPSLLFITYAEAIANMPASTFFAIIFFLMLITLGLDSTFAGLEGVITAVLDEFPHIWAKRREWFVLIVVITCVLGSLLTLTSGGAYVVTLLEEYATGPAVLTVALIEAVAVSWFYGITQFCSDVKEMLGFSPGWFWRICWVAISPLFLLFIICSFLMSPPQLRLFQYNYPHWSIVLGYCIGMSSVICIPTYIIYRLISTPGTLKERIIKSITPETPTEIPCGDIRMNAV
Assay: Serotonin uptake inhibition (5HT uptake) in synaptosomes
Type: biochemical
Details: rat brain synaptosomes
Measured inhibition at 10 µM accompanies every entry in the list below.

In the examples that follow, each entry is paired with its recorded inhibition at 10 µM.
[[record]]
structure_as_smiles = "Cc1ccc(F)cc1S(=O)(=O)N1CCC2(CC1)CC(C(=O)NCc1cccs1)=NO2"
experimental_result = "70%"

[[record]]
structure_as_smiles = "Cc1cc(C(=O)N2CCC3(CC2)CC(C(=O)NCC(C)C)=NO3)ccc1Br"
experimental_result = "46%"

[[record]]
structure_as_smiles = "CC(=O)N1CCC2(CC1)CC(C(=O)NCc1ccccc1)=NO2"
experimental_result = "41%"


# evaluate next
Fetch value of inhibition at 10 µM on 5HT-uptake (Rattus norvegicus) for O=C(C1=NOC2(CCN(S(=O)(=O)c3ccc(Cl)s3)CC2)C1)N1CCN(c2ccccc2)CC1 .
54%
